- System: T47D
- procedure.text: NCI tumour cell line growth inhibition, 48 h
The source made the active and inactive calls. No stated cut-off is given here; in the data, active = GI50 up to about 1.1 µM and inactive = higher.
Catalogue of compounds with associated GI50
endpoint.label: GI50

- compound: "O=S(=O)(c1ccccc1)[C@H]1[C@@H]2O[C@@H]2C[C@@H]1O"
  measured: "> 100 µM (inactive)"
- compound: "O=C(Nc1ccc2cc3ccccc3cc2c1)c1cc2c(cc1Cl)Sc1nccn1S2(=O)=O"
  measured: "25.2 µM (inactive)"
- compound: "C=C1C(=O)O[C@@H]2C(=O)[C@@H](C)CCC/C(C)=C/CC[C@@]3(C)O[C@@H]3C[C@@H]12"
  measured: "87.9 µM (inactive)"
- compound: "COC(=O)C(=O)C(C(=O)C(=O)Nc1ccc([N+](=O)[O-])cc1[N+](=O)[O-])c1nc2ccc(Cl)cc2nc1O (stereo not given)"
  measured: "> 100 µM (inactive)"
- compound: "COc1ccc(C(=O)/C=C/c2cc(O)c(O)cc2F)c(OC)c1"
  measured: "4.05 µM (inactive)"
- compound: "O=c1c(-c2ccc(O)cc2)coc2cc(O)cc(O)c12"
  measured: "> 100 µM (inactive)"
- compound: "CC(C)(C)OC(=O)NC12C3C4C1C1C2C3C41NC(=O)OC(C)(C)C (stereo not given)"
  measured: "27.3 µM (inactive)"
- compound: "CCOC(=O)CCSS(=O)(=O)C(F)(F)F"
  measured: "> 100 µM (inactive)"
- compound: "Cc1cccc(NC(=S)Nc2cccc(Cl)c2)n1"
  measured: "> 100 µM (inactive)"
- compound: "Cc1nn(-c2ccccc2)c(C)c1/C=N/N=C1\\S/C(=C\\c2ccc(Cl)cc2)C(=O)N1c1ccccc1"
  measured: "> 100 µM (inactive)"
